# Assay Summary: Plasmodium falciparum growth inhibition, primary screen, strain 3D7, DAPI fluorescence, 100 nL (AID 1184);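 note: parasites grown inside human red blood cells in medium with human serum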
# Experimental Setup: P. falciparum 3D7 growth, 3 d, higher = more signal
We use -1 as the dividing line for z-score: on or above the line is Criterion met, below is Criterion not met.

>>> group_label("C=C(COC)/C(=C/C[C@H](OC(C)=O)c1ccc(CO)o1)c1cnc2ccccc2c1")
"Criterion met"
>>> group_label("CC(C)CNC(=O)[C@@H]1c2ccccc2C(=O)N(Cc2ccc(OC(F)(F)F)cc2)[C@H]1c1ccc(CO)cc1")
"Criterion met"
>>> group_label("C[N+](C)(C)CCCCNC(=O)[C@@H]1C[C@@H]2C(=O)NCC(=O)N2[C@@H]1c1cccc(OCCO)c1")
"Criterion met"
>>> group_label("C=CCC(OC(C)=O)[C@@H]1[C@@H](N(Cc2cccc3ccccc23)C(=O)c2cccc3ccccc23)c2cc(OCCCO)ccc2N1C(=O)Cc1ccc(OC)cc1 (some centres undefined)")
"Criterion not met"
>>> group_label("O=C1N(CCS(=O)(=O)c2ccccc2)Cc2ccccc2[C@@H]2OC(c3ccc(OCCCO)cc3)=N[C@]12Cc1ccccc1")
"Criterion not met"
>>> group_label("C=CCN1C(=O)[C@]2(O[C@H](CCn3cc([C@H](O)c4ccccc4)nn3)[C@@H]([Si](C)(C)c3ccc(OC)cc3)[C@@H]2C)c2cc(N3CCOC3=O)ccc21")
"Criterion not met"
>>> group_label("O=C1O[C@H](c2ccccc2)[C@H](c2ccccc2)N2[C@H]1[C@@H](C(=O)NC[C@H](O)c1ccccc1)[C@]1(C(=O)Nc3ccc(C#CC4(O)CCCCCC4)cc31)[C@H]2c1ccc(O)cc1")
"Criterion met"
>>> group_label("CC(C)C(CO)N1C(=O)[C@@H]2C3C(=O)OCCC/C=C\\[C@H]3OC23C=CCN(C(C)C)C(=O)[C@@H]13 (some centres undefined)")
"Criterion met"
>>> group_label("C=C(C(=O)CC[C@@H](OC(C)=O)c1ccccc1OCCO)C(C)C")
"Criterion not met"
>>> group_label("COCCCNC(=O)[C@@]1(CCS(=O)(=O)c2ccccc2)N=C(c2ccc(OCCCO)cc2)O[C@H]1c1ccccc1CN=[N+]=[N-]")
"Criterion not met"
>>> group_label("O=C1O[C@@H](c2ccccc2)[C@@H](c2ccccc2)N2[C@@H](c3ccc(OCCO)cc3)[C@]3(C(=O)Nc4ccc(C#CC5(O)CCCCCC5)cc43)[C@@H](C(=O)NC[C@H](O)c3ccccc3)[C@H]12")
"Criterion not met"
>>> group_label("COc1ccc([Si](C)(C)[C@H]2[C@H](CC(=O)N(CCO)Cc3ccccc3)O[C@@]3(C(=O)N(Cc4ccc(N5CCC5=O)cc4)c4ccccc43)[C@@H]2C)cc1")
"Criterion not met"
>>> group_label("COc1ccc([Si](C)(C)[C@H]2[C@H](CC(=O)N(CCO)Cc3ccccc3)O[C@@]3(C(=O)N(Cc4ccc(N5CCOC5=O)cc4)c4ccccc43)[C@@H]2C)cc1")
"Criterion not met"
>>> group_label("Cc1ccc(N2C(=O)c3ccccc3[C@](C)(C(=O)NCC(F)(F)F)[C@@H]2c2ccc(CO)cc2)nc1")
"Criterion not met"
>>> group_label("COc1ccc([Si](C)(C)[C@H]2[C@H](CC(=O)N3Cc4ccccc4C[C@H]3CO)O[C@@]3(C(=O)N(Cc4cccc(N5C(=O)COc6ccccc65)c4)c4ccccc43)[C@@H]2C)cc1")
"Criterion not met"
>>> group_label("C=C[C@H](OC)[C@@H](OC(=O)Nc1ccc(OC)cc1)c1ccc(OC)c(O)c1")
"Criterion met"
>>> group_label("CC(C)[Si](C#C[Si](C(C)C)(C(C)C)C(C)C)(O[C@H](C)c1cn([C@H](C)c2ccccc2)nn1)C(C)C")
"Criterion met"
>>> group_label("C#CCN1C(C(=O)OCC)OC[C@H]1c1ccccc1 (some centres undefined)")
"Criterion not met"
>>> group_label("C=CC[C@]1(C(=O)N2CCCCC2)COC(c2ccc(OCCCO)cc2)=N1")
"Criterion not met"
>>> group_label("C=C(/C(=C/C[C@H](OC(=O)c1ccncc1)c1cccc(OCCO)c1)c1cc(C(=O)OC)ccc1OC)C(C)C")
"Criterion not met"
>>> group_label("CN1C=C(C(=O)OCCS(C)(=O)=O)C(C(=O)OCCS(C)(=O)=O)=CC(CCCO)=CC1c1cccs1 (centres undefined)")
"Criterion met"
>>> group_label("CC(C)(C)OC(=O)CC[C@]1(C(=O)NCc2ccccc2)N=C(c2ccc(OCCCO)cc2)O[C@H]1c1ccccc1N=[N+]=[N-]")
"Criterion not met"
>>> group_label("C=CCC(OC(C)=O)[C@@H]1[C@@H](N(Cc2cccc3ccccc23)C(=O)Cc2ccc(OC)cc2)c2cc(OCCCO)ccc2N1C(=O)Cc1ccc(OC)cc1 (some centres undefined)")
"Criterion not met"
>>> group_label("CC(C)C[C@@H]1NC(=O)[C@@H]2C[C@H](C(=O)NCCCCCNC(=O)CS)[C@H](c3cccc(OCCO)c3)N2C1=O")
"Criterion met"
>>> group_label("COCCCNC(=O)[C@@]1(C)c2ccccc2C(=O)N(Cc2cc(F)cc(C(F)(F)F)c2)[C@H]1c1ccc(CO)cc1")
"Criterion met"
>>> group_label("[N-]=[N+]=NCc1ccccc1C[C@@]1(C(=O)NCc2ccccc2)N=C(c2ccc(OCCCO)cc2)O[C@@H]1c1ccccc1")
"Criterion not met"
>>> group_label("CCCCCN1CC=CC23O[C@@H]4/C=C\\CCC(C)OC(=O)C4[C@H]2C(=O)N(CCCO)[C@@H]3C1=O (some centres undefined)")
"Criterion met"
>>> group_label("C=C1C=C(Br)C2(OCCCO2)[C@H]2OC12 (some centres undefined)")
"Criterion met"
>>> group_label("CCOC(=O)C[C@H]1[C@H](OC(=O)c2ccc(-c3ccccc3)cc2)[C@@H](NC(=O)c2ccccc2)c2cc(OCCCO)ccc2N1C(=O)c1ccccc1")
"Criterion not met"

* * *

# Assay Summary: inhibitors of CMV-promoter luciferase reporter, dose response, counter-screen for Pax8 inhibitor project, cell-based, HEK293, luminescence, dry powder (AID 743020);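 note: HEK293 cells stably expressing the CMV luciferase reporter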
# Experimental Setup: SteadyGlo luminescence, 24 h; series mostly up to 35 µM
Entries with a potency or affinity are not part of this list. Results filed as inconclusive are left out. Activity calls are given as the source filed them.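 The calls were made as follows: active = signal-lowering compounds whose fitted half-maximal concentration is at or below twice the top tested dose in every run; inconclusive = runs disagree, flat 30 to 70% inhibition, or poor curve fit; inactive = the rest.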
Measured Quantity: activity change, negative = inhibition

>>> measured_result("C[C@H](O)C#Cc1ccc([C@@H]2[C@@H](CO)N3CCCCN(S(=O)(=O)c4ccccc4)C[C@H]23)cc1")
"inactive"
>>> measured_result("COC(=O)C1=C(SC)N(c2ccccc2)C(c2ccccc2)CC1=O (stereo not drawn)")
"inactive"
>>> measured_result("COCC(=O)N1CCCCN2[C@H](C1)[C@@H](c1ccc(-c3ccc(C)cc3)cc1)[C@@H]2CO")
"inactive"
>>> measured_result("CC1=C(C(=O)OC2CCCCC2)C(c2cccnc2)n2ncnc2N1 (stereo not drawn)")
"inactive"
>>> measured_result("C[C@@H]1CN([C@H](C)CO)C(=O)c2cc(NC(=O)Nc3ccc(F)cc3)ccc2O[C@@H](C)CCCCO[C@H]1CN(C)C(=O)Nc1ccc(F)cc1")
"inactive"
>>> measured_result("C[C@@H]1CN([C@@H](C)CO)C(=O)Cc2cc(NS(=O)(=O)c3ccc(Cl)cc3)ccc2O[C@@H]1CN(C)CC1CCCCC1")
"inactive"
>>> measured_result("CN1c2ccc(-c3cccc(F)c3)cc2[C@@H]2[C@@H](CCN2C(=O)Cc2ccccc2)[C@@H]1CO")
"inactive"
>>> measured_result("CCN(CC(=O)Nc1c(F)cccc1F)C(=O)c1cc(S(=O)(=O)N(CC)CC)ccc1N1CCCCC1")
"inactive"

* * *

# Assay Summary: MM1S myeloma cell viability, profiling panel, resazurin fluorescence, basal, 24 h, PK04 Diversity Set (AID 1174);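 note: MM1S multiple myeloma cell line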
# Experimental Setup: higher = more signal, called active from +8 up or from −8 down
Measured Quantity: z-score

>>> measured_result("O=C1O[C@@H](c2ccccc2)[C@@H](c2ccccc2)N2[C@@H](c3ccc(OCCO)cc3)[C@]3(C(=O)Nc4ccc(C#CC5(O)CCCCCC5)cc43)[C@@H](C(=O)NC[C@H](O)c3ccccc3)[C@H]12")
0.786
>>> measured_result("C=CC[C@]1(C(=O)N2CCCCC2)COC(c2ccc(OCCCO)cc2)=N1")
-0.863
>>> measured_result("C=CC[C@@H](OC(=O)Nc1ccc(SC)cc1)c1ccc(OCCO)cc1")
0.822
>>> measured_result("COC(=O)C(CC#Cc1ccc2c(c1)[C@]1(C(=O)N2)[C@H](C(=O)O)[C@H]2C(=O)O[C@H](c3ccccc3)[C@H](c3ccccc3)N2[C@@H]1c1ccc(OCCO)cc1)C(=O)OC")
1.22

* * *

# Assay Summary: small-molecule binders of probe aNOTCH3, primary screen, biochemical, small-molecule microarray, 635/667 nm fluorescence (AID 1120);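 note: probe is a biotin-tagged antibody raised against NOTCH3 rather than NOTCH3 protein; score merges spot fluorescence near 667 nm with spot signal to noise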
# Experimental Setup: higher = more signal
We use -0.004 as the dividing line for composite z-score: on or above the line is Met, below is Not met.

>>> group_label("CCCCCN1CC=CC23O[C@@H]4/C=C\\CCC(C)OC(=O)C4[C@H]2C(=O)N(CCO)[C@@H]3C1=O (some centres not stated)")
"Not met"
>>> group_label("CC(C)(C)OC(=O)CC[C@@]12N=C(c3ccc(OCCCO)cc3)O[C@@H]1c1ccccc1N(Cc1ccccc1)C2=O")
"Not met"
>>> group_label("C=CCC(OC(C)=O)[C@@H]1[C@@H](N(Cc2cccc3ccccc23)C(=O)Cc2ccc(OC)cc2)c2cc(OCCCO)ccc2N1C(=O)Cc1ccc(OC)cc1 (some centres not stated)")
"Not met"
>>> group_label("CC(C)CCC[C@@H](C)[C@H]1CC[C@@]2(C)C3=C(CC[C@]12C)[C@@]1(C)CC[C@H](OC(=O)CCl)C(C)(C)C1CC3 (some centres not stated)")
"Met"
>>> group_label("COCCCNC(=O)[C@@]1(Cc2ccccc2)N=C(c2ccc(OCCCO)cc2)O[C@H]1c1ccccc1N=[N+]=[N-]")
"Met"
>>> group_label("O=C1O[C@H](c2ccccc2)[C@H](c2ccccc2)N2[C@H]1[C@@H](C(=O)NC[C@H](O)c1ccccc1)[C@]1(C(=O)Nc3ccc(C#CC4(O)CCCCCC4)cc31)[C@H]2c1ccc(O)cc1")
"Met"

Source listed as PubChem BioAssay.
